# assay: Bioavailability in guinea pig at 1 mg/kg, po
# Format: ADME, organism-based, Cavia porcellus
# condition set: in vivo
observed property: bioavailability
Remember to put the unit after the number in your answer.

Query :: Find the recorded bioavailability belonging to O=C(Nc1ccccc1Br)N[C@@H]1CCN(c2ccc(C(F)(F)F)cn2)C1 and report it.
Result :: 39%

---

# assay: Volume of distribution in guinea pig
# Format: ADME, organism-based, Cavia porcellus
# condition set: in vivo, read-out: Vdss
observed property: Vd (L/kg)
Numeric answer only, unit L/kg assumed.

Query :: Find the recorded Vd belonging to O=C(Nc1ccccc1Br)N[C@@H]1CCN(c2ccc(C(F)(F)F)cn2)C1 and report it.
Result :: 3.6

---

# assay: Solubility in stimulated gastric fluid
# Type: physicochemical
# condition set: simulated gastric fluid
observed property: solubility (µg/mL)
Numeric answer only, unit µg/mL assumed.

Query :: Find the recorded solubility belonging to O=C(Nc1ccccc1Br)N[C@@H]1CCN(c2ccc(C(F)(F)F)cn2)C1 and report it.
Result :: 400

---

# assay: Bioavailability in rat at 3 mg/kg, po
# Assay type: ADME, organism-based
# condition set: in vivo
observed property: bioavailability
Remember to put the unit after the number in your answer.

Query :: Find the recorded bioavailability belonging to O=C(Nc1ccccc1Br)N[C@@H]1CCN(c2ccc(C(F)(F)F)cn2)C1 [SB-705498] and report it.
Result :: 86%

---

# assay: Bioavailability in dog at 3 mg/kg, po
# Assay type: ADME, organism-based, Canis lupus familiaris
# condition set: in vivo
observed property: bioavailability (%)
Numeric answer only, unit % assumed.

Query :: Find the recorded bioavailability belonging to O=C(Nc1ccccc1Br)N[C@@H]1CCN(c2ccc(C(F)(F)F)cn2)C1 and report it.
Result :: 42

---

# assay: Half life in dog
# Type: ADME, organism-based, Canis lupus familiaris
# condition set: in vivo
observed property: half-life (h)
Numeric answer only, unit h assumed.

Query :: Find the recorded half-life belonging to O=C(Nc1ccccc1Br)N[C@@H]1CCN(c2ccc(C(F)(F)F)cn2)C1 [SB-705498] and report it.
Result :: 3.4

---

# assay: Half life in guinea pig
# Format: ADME, organism-based, Cavia porcellus
# condition set: in vivo
observed property: half-life (h)
Numeric answer only, unit h assumed.

Query :: Find the recorded half-life belonging to O=C(Nc1ccccc1Br)N[C@@H]1CCN(c2ccc(C(F)(F)F)cn2)C1 and report it.
Result :: 2.6

---

# pKb listing for each entry below
# study system: Transient receptor potential cation channel subfamily V member 1 (Rattus norvegicus) (UniProt O35433)
# Sequence (O35433 whole entry): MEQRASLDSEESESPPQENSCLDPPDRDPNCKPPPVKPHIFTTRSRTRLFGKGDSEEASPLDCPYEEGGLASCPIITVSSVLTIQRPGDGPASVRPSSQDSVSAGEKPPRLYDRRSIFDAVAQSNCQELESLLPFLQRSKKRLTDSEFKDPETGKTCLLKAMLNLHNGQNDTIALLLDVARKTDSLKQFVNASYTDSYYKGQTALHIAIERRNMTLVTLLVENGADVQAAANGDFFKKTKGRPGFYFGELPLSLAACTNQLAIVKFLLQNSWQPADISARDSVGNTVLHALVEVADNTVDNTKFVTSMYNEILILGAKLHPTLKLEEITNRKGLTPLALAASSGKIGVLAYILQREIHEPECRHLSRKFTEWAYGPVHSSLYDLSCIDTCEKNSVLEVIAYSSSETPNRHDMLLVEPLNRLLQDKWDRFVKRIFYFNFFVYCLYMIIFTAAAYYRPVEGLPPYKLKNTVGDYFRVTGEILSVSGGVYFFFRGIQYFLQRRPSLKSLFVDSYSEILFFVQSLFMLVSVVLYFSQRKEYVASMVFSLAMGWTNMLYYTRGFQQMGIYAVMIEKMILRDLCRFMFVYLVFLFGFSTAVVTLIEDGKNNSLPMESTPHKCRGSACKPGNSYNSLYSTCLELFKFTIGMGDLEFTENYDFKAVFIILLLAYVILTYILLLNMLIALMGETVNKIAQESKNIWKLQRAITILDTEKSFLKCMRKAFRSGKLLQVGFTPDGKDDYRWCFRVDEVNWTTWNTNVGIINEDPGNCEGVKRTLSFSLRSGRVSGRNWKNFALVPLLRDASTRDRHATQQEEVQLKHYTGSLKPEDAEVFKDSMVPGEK
# assay: Antagonist activity against capsaicin-mediated activation of rat TRPV1 by FLIPR
# Assay type: functional
Answer with a number only.

Would you please look over these solved cases?
| smiles record | measurement |
| --- | --- |
| O=C(Nc1ccccc1Br)N[C@@H]1CCN(c2ncccc2C(F)(F)F)C1 | 7.1 |
| O=C(Nc1ccccc1Br)N[C@@H]1CCN(c2cccc(C(F)(F)F)n2)C1 | 7.2 |
| O=C(Nc1ccccc1Br)N[C@@H]1CCN(c2cccc(F)c2)C1 | 7.8 |
| O=C(Nc1ccccc1Br)N[C@@H]1CCN(c2ccc(C(F)(F)F)cn2)C1 | 7.5 |
| O=C(Nc1ccccc1Br)N[C@@H]1CCN(c2ccc(F)c(F)c2)C1 | 8.1 |

Query :: Find the recorded pKb belonging to CCN(CCNC(=O)Nc1ccccc1Br)c1cccc(C)c1 and report it.
Result :: 7.8

Query :: Field entry: O=C(NCCN1CCc2ccccc21)Nc1ccccc1Br
Result :: 6.8

Query :: Field entry: O=C(Nc1ccccc1Br)N[C@@H]1CCN(c2cc(C(F)(F)F)ccn2)C1
Result :: 6.9

Query :: Field entry: Cc1cccc2c1CCN2CCNC(=O)Nc1ccccc1Br
Result :: 7.4

Query :: Field entry: Cc1ccc2c(c1)CCCN2CCNC(=O)Nc1ccccc1Br
Result :: 7.4

Query :: Field entry: O=C(NCCN1CCc2c(F)cccc21)Nc1ccccc1Br
Result :: 7.4

Query :: Field entry: O=C(NCCN1CCc2cc(F)ccc21)Nc1ccccc1Br
Result :: 7.1

Query :: Field entry: Cc1ccc2c(c1)CCN2CCNC(=O)Nc1ccccc1Br
Result :: 7.3

Query :: Field entry: O=C(Nc1ccccc1Br)N[C@@H]1CCN(c2ccc(Cl)cn2)C1
Result :: 7.3

Query :: Field entry: Cc1ccc(N2CC[C@@H](NC(=O)Nc3ccccc3Br)C2)cc1F
Result :: 8.3

Query :: Field entry: Cc1cccc(N2CC[C@@H](NC(=O)Nc3ccccc3Br)C2)c1
Result :: 7.7

Query :: Field entry: O=C(Nc1ccccc1Br)N[C@@H]1CCN(c2ccc(Br)cn2)C1
Result :: 7.2

Query :: Field entry: N#Cc1ccc(N2CC[C@@H](NC(=O)Nc3ccccc3Br)C2)nc1
Result :: 6.7
